Molecular target: EBP-Ig (N-terminal 225 amino acids of the human EPO receptor joined to an Ig heavy chain) (Homo sapiens)
Construct: Ig heavy chain (fusion partner); made in house; host or cells: NSO cells (secreted into conditioned media)
Sequence (P19235 25-250 limits assumed): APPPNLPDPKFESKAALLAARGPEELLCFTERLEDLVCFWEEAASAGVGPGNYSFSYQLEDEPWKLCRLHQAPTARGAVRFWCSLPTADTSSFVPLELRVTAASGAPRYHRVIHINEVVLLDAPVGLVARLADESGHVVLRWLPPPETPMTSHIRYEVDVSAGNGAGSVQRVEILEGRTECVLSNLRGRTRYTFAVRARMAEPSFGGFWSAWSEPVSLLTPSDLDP
Assay: Inhibition of [125I]EPO binding to immobilized EBP-Ig (EPO binding protein-Ig), scintillation Flash plate competition assay
Conditions: 0.5 nM [125I]EPO; 0–500 μM test compound
Method: The interaction of biotin and streptavidin is frequently employed to capture and effectively immobilize reagents useful in assay protocols and has been employed here as a simple method to capture and immobilize EBP-Ig. […] The amount of light produced was quantified to estimate the amount of ligand binding. […] All wells were adjusted to a final DMSO concentration of 5%. […] Corrected total binding (CTB) was calculated as: TB−NSB=CTB. […]
measured metric: IC30 μM (Inhibition of EPO binding to EBP-Ig)

compound	reported
O=C(O)CCC(=O)NCCCCC(C(=O)NCCCCCCCCCCCCNC(=O)C(CCCCNC(=O)CCC(=O)O)N(Cc1ccc(OCc2ccccc2)cc1)Cc1ccc(OCc2ccccc2)cc1)N(Cc1ccc(OCc2ccccc2)cc1)Cc1ccc(OCc2ccccc2)cc1 (stereo not shown)	7 µM
COC(=O)C(CCCCN)N(Cc1ccc(OCc2ccccc2)cc1)Cc1cccc(NC(=O)c2ccc(C)cc2)c1 (stereo not shown)	2 µM
COc1cccc(CCNC(=O)C(CCCCN)N(C/C=C/c2ccccc2)C/C=C/c2ccccc2)c1 (stereo not shown)	5 µM
O=C(O)CC(C(=O)O)N(C/C=C/c1cccc(Oc2ccccc2)c1)C/C=C/c1cccc(Oc2ccccc2)c1 (stereo not shown)	23 µM
